B1: OR4K15 (parent)
chain: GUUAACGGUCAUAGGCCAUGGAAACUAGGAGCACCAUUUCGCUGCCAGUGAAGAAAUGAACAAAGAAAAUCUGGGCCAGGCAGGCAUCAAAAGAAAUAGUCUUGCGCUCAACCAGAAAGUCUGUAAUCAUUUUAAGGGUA

- Variants of: B1
- experiment_description: self-cleavage, relative activity (ratio to wild type); higher = more cleavage; in vitro, sequencing; the parent is a self-cleaving ribozyme
Classify as follows. Reported self-cleavage greater than or equal to 0.8: Met. Reported self-cleavage below: Not met.

Worked cases, answers included:
sequence_text | group
GUUAACGGUCAUAGGCCAUGGAAACUAGGAGCACCAUUUCGCUGCCAGUGAAGAAAUGAACAAAGAAAAUCUGGGCCAGGCAGGCAUCAAAAGAAAUAGUCUUGCGCUCAACCAGAAAGUCUGUGAUCAUUUUAUGGGUA [A125G A135U] | Not met
GUUAACGGUCAUAGGCCAUGGAAACUAGGAGCACCAUUUCGCUGCCAGUGAAGAAAUGUACAAAGAAAAUCUGGGCCAGGCAGGCAUCAAUAGAAAUAGUCUUGCGCUCAACCAGAAAGUCUGUAAUCAUUUUAAGGGUA [A59U A91U] | Met
GUCAACGGUCAUAGGCCAUGGAAACUAGGAGCACCAUUUCGCUGCCAGUGAAGAGAUGAACAAAGAAAAUCUGGGCCAGGCAGGCAUCAAAAGAAAUAGUCUUGCGCUCAACCAGAAAGUCUGUAAUCAUUUUAAGGGUA [U3C A55G] | Met
GUUAACGGUCAUAGGCCAUGGAAACUAGGAGCACCAUUUCGCUGCCAGUGAAGAAAUGAACGAAGAAUAUCUGGGCCAGGCAGGCAUCAAAAGAAAUAGUCUUGCGCUCAACCAGAAAGUCUGUAAUCAUUUUAAGGGUA [A62G A68U] | Met
GUUAACGGUCAUAGGCCAUGGAAACUAGGAGCUCCAUUUCGCUGCCAGUGAAGAAAUGAACAAAGAAAAUCUGGGCCAGGCAGGCAACAAAAGAAAUAGUCUUGCGCUCAACCAGAAAGUCUGUAAUCAUUUUAAGGGUA [A33U U87A] | Met
GUUAACGGUCAUAGGCCAUGGAAACUAGGAGCACCAUUUCGCUGCCAGUGAAGAAAUGAACAAAGAAAAUCUGGGCCAAGCAGGCAUCAAAAGAAAUAGUCUUGCGCUCAACCAGAAAGUCUGUAAUCCUUUUAAGGGUA [G79A A129C] | Not met
GUUAACGGUCAUAGGCCAUGGAAACUAGGAGCACCAUUUCGCUGCCAGUGAAGAAAUGAACAGAGAAAAUCUGGGCCAGGCAGGCAUCAAAAGAAAUAGUCUUGCGCUCAACCGGAAAGUCUGUAAUCAUUUUAAGGGUA [A63G A114G] | Met
GUUAACGGUCAUAGGCCAUGGAAACUAGGAGCACCAUUUCGCUGCCAGUGAAGAAAUGAACAAAGAAAAUCUGGGCCAGGCAGGCAUCUAAAGAAACAGUCUUGCGCUCAACCAGAAAGUCUGUAAUCAUUUUAAGGGUA [A89U U97C] | Met
GUUAACGGUCAUAGGCCAUGGAAACUAGGAGCACCAUUUCGCUGCCAGUGAAGAAAUGAACAAAGAAAAUCUUGGCCAGGCAGGCAUCAAAGGAAAUAGUCUUGCGCUCAACCAGAAAGUCUGUAAUCAUUUUAAGGGUA [G73U A92G] | Not met
GUUAACGGUCAUAAGCCAUGGAAACUAGGAGCACCAUUUCGCUGCCAGUGAAGAAAUGAACAAAGAAAAUCUGGGCCAGGCAGGCAUCAAAAGAAAUAGUCUUGCGCUCAACCAGAGAGUCUGUAAUCAUUUUAAGGGUA [G14A A117G] | Met

In plain terms: is recorded self-cleavage at least 0.8 for GCUAACGGUCAUAGGCCAUGGAAACUGGGAGCACCAUUUCGCUGCCAGUGAAGAAAUGAACAAAGAAAAUCUGGGCCAGGCAGGCAUCAAAAGAAAUAGUCUUGCGCUCAACCAGAAAGUCUGUAAUCAUUUUAAGGGUA [U2C A27G] ?
Met

Hi team, for GUUAACGGUCAUAGGCCAUGGAGACUAGGAGCACCAUUUCGCUGCCAGUGAAGAAAUGAACAAAGAAAAUCUGGGCCAGGCAGGCAUCAAAAGAAAUAGUCUUGCGCUCAACCAGAAAGUCUGUAAUCAUUUUAUGGGUA [A23G A135U] , is the recorded self-cleavage at or above 0.8?
Met

For this variant, is measured self-cleavage 0.8 or higher? GUUACCGGUCAUAGGCCAUGGAAACUAGGAGCACCAUUUCGCUGCCAGUGAAGAAAUGAACAAAGGAAAUCUGGGCCAGGCAGGCAUCAAAAGAAAUAGUCUUGCGCUCAACCAGAAAGUCUGUAAUCAUUUUAAGGGUA [A5C A66G]
Met

Does the variant GUUAACGGUCAUAGGCCAUGGAAACUAGGAGCACCAUUUCGCUGCCAGUGAAGAAAUGAACAAAGAAAAUCUGGGCCAGGCAGGCAUCAAAAGAAAUAGUCUUGCGCUCAACCAAAAAGCCUGUAAUCAUUUUAAGGGUA [G115A U120C] have recorded self-cleavage that is 0.8 or more?
Not met

Reported self-cleavage at or above 0.8? GUUAACGGUCAUAGGCCAUGGAAACUAGGAGCACCAUUUCGCUGCUAGUGAAGAAAUGAACAAAGAAAUUCUGGGCCAGGCAGGCAUCAAAAGAAAUAGUCUUGCGCUCAACCAGAAAGUCUGUAAUCAUUUUAAGGGUA [C46U A69U]
Met

Decide: self-cleavage of GUUAACGGUCAUAGGCCAUGGAAACUAGGAGCACCAUUUCGCUGCCAGUGAAGAAAUGAACAAAGAGAAACUGGGCCAGGCAGGCAUCAAAAGAAAUAGUCUUGCGCUCAACCAGAAAGUCUGUAAUCAUUUUAAGGGUA [A67G U70A] >= 0.8?
Not met

Does self-cleavage meet or surpass 0.8 for GUUAACGGUCAUAGGCCAUGGAAACUAGGAGCACCAUUUCGCUGCCAGUGAAGAAAUGAACAAAGAAAAUCUGGGCCAGGCAGGCAUCAAAAGAGGUAGUCUUGCGCUCAACCAGAAAGUCUGUAAUCAUUUUAAGGGUA [A95G A96G] ?
Met

Could you please find out whether GUUAACGGUCAUAGGCCAUGGAAACUAUGAGCACCAUUUCGCUGCCAGUGAAGAAAUGAACAAAGAAAAUCUGGGCCAGGCAGGCAUCAAAAGAAAUAGACUUGCGCUCAACCAGAAAGUCUGUAAUCAUUUUAAGGGUA [G28U U100A] has self-cleavage that meets 0.8 or exceeds it?
Not met

Threshold query (self-cleavage >= 0.8) on GUUAACGGUCAUAGGCCAUGGAAACUAGGAGCACCAUUUCGCUGCCAGUGAAGAAAUGAACAAAGAAAAUCUGGGCCAGGCAGGCAUCAAAAGAAAUAGUCUUGCGCUCAACCAAAAGGUCUGUAAUCAUUUUAAGGGUA [G115A A118G]
Not met

Is self-cleavage for GUUAACGGUCAUAGGCCAUGGAAACUAGGAGCACCAUUUCGCUGCCAGUGAGGAAAUGAACAAAGAAAAUCUGGCCCAGGCAGGCAUCAAAAGAAAUAGUCUUGCGCUCAACCAGAAAGUCUGUAAUCAUUUUAAGGGUA [A52G G75C] at or above 0.8?
Not met

Does GUUAACGGUCAUAGGCCAUGGAAACUAGGAGCACCAUUUCGCUGCCAGUGACGAAAUGAACAAAGAAAAUCUGGGCCAGGCAGGCAUCAAAAGAAAUAGUCUUGCGCUCAACCAGAAAGUCUGUAAUCAUCUUAAGGGUA [A52C U131C] have a reported self-cleavage of at least 0.8?
Met

Test whether the variant GUUAACGGUCAUAGGCCAUGGAAACUAGGAGCACCAUUUCGCUGCCAGUGAAGAAAUGAACAAAGAAAAUCUGGGCCAGGCAGGCUUCAAAAGAAAUAGUCUUGCGCUCAACCAGAAAGUCUGUAAUCGUUUUAAGGGUA [A86U A129G] records self-cleavage of 0.8 or higher.
Met

Hi, just wondering whether GUUAACGUUCAUAGGCCAUGGAAACUAGGAGCACCAUUUCGCUGCCAGUGAAGAAAUGAACAAAGAAAAUCUGGGCCAGGCAGGCAUCAAAAGGAAUAGUCUUGCGCUCAACCAGAAAGUCUGUAAUCAUUUUAAGGGUA [G8U A94G] shows self-cleavage of 0.8 or higher.
Met

// inclusive: self-cleavage at least 0.8? input: GUUAACGGUCAUAGGCCAUGGAAACCAGGAGCACCAUUUCGCUGCCAGUGAAGAAAUGAACAAAGAAAAUCUGGGCCAGGCAGGCAUCAAAAGAAAUAGCCUUGCGCUCAACCAGAAAGUCUGUAAUCAUUUUAAGGGUA [U26C U100C]
Met

Quick check, self-cleavage >= 0.8? GUUAACGGUCAUAGGCCAUGGAAACUAGGAGCACCAUUUCGCUGCCAGUGAAGAAAUGAACAAAGAAAAUCUGGGCCAGGCAGGCAUCAAAAGAAAUAGUCUUGCGCUCAACCAGAAAGUCUGUAGCCAUUUUAAGGGUA [A126G U127C]
Met

Entry GUUAACGGUCAUAGGCCAUGGAAACUAGGAGCACCAUUUCGCUGCCAGUGAAGAAAUGAACAAGGAAAAUCUGGGCCAGGCAGGCAUCAAAAGAAAUAGUCUUGCGCUCAACCAGAAAGUCUGUAAUCAUUUUAAGGAUA [A64G G138A] : is its self-cleavage no less than 0.8?
Met

Given GUUAACGGUCAUAGGCCAUGGAAACUAGGAGCACCAUUUCGCUGCCAGUGAAGAAAUGAACAAAGAAAAUCUGGGCCAGGCAGGCAGCAAAAGAAAUAGUCUUGCGCUCAACCAGAAAGUCUGUACUCAUUUUAAGGGUA [U87G A126C] , state whether its self-cleavage is at least 0.8.
Not met

Assess whether reported self-cleavage for GUUAACGGUCAUAGGCCAUGGAAACUAGGAGCACCAUUCCGCUGCCAGUGAAGAAAUGAACAAAGAAAAUCUGGGCCAUGCAGGCAUCAAAAGAAAUAGUCUUGCGCUCAACCAGAAAGUCUGUAAUCAUUUUAAGGGUA [U39C G79U] sits at 0.8 or higher.
Not met
